B1: Storkhead-box protein 2, residues 64 to 141; numbered along this chain, Q9P2F5 (parent)
chain: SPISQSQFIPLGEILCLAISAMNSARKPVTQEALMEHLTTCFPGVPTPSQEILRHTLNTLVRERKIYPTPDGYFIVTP

Variants of: B1
experimental details: abundance fitness (aPCA) (normalised: wild type 0, dead -1); higher = more abundant; growth selection in yeast, the domain comes from the species named
measurement parameters: Homo sapiens
Decision: abundance fitness >= -0.1 yields yes (1), all other cases yield no (0).

Reference set, count: 5
INSERT INTO assay_data (mutation_id, assigned_class) VALUES
  ('R62K', 'no (0)'),
  ('T47W', 'no (0)'),
  ('N23M', 'no (0)'),
  ('E36W', 'no (0)'),
  ('I75S', 'yes (1)');

Evaluate "E51H" : abundance fitness at minimum -0.1?
yes (1)

Is the recorded value of abundance fitness equal to or greater than -0.1 for this variant? "Y67H"
yes (1)

Evaluate "E32G" : abundance fitness at minimum -0.1?
yes (1)

Please tell me: is the variant "G44V" at or over -0.1 in terms of abundance fitness?
no (0)

In plain terms: is recorded abundance fitness at least -0.1 for "L60T" ?
no (0)

Is abundance fitness for "S20Y" at or above -0.1?
no (0)

Entry "P46L" : is its abundance fitness no less than -0.1?
no (0)

Record "P2N" ; criterion: abundance fitness no lower than -0.1. Met?
yes (1)

Evaluate "I19F" : abundance fitness at minimum -0.1?
no (0)

API: above_or_equal(metric=abundance fitness, cutoff=-0.1) for item "P70Y"
yes (1)

Check the entry "S4P" : does abundance fitness equal or exceed -0.1?
yes (1)

Check the entry "P68F" : does abundance fitness equal or exceed -0.1?
yes (1)

Where do the numbers come from? From the Human Domainome abundance scans (Beltran et al. 2025).
